- experimental target: Polyunsaturated fatty acid lipoxygenase ALOX12 (Homo sapiens)
- assay name: Primary qHTS assay for inhibitors of human arachidonate 12S-lipoxygenase (ALOX12): Round 2
- condition info: purified 12hLO, xylenol orange hydroperoxide absorbance; series mostly up to 108 µM
Screen size: about 580,000 compounds; about 6,100 (1.1%) were called active. Roughly 15% stayed inconclusive and do not appear here. The call rests on the fitted dose curve; in most records, active means well fitted inhibition curve with a large enough effect; inconclusive means small, poorly fitted or top-dose-only effect, or another doubt; inactive means no such curve, though single readings can be large or run the other way. For the sample, actives were picked, then their nearest neighbours and some compounds at random.
Outcomes: label 1 (active), label 0 (inactive)

compound: CCc1ccc(NC(=O)N2CCCC(Cn3cnc4cccnc43)C2)cc1 (stereo not drawn)
label: label 0
//
compound: CCn1nc(C(=O)Nc2ccccn2)c2ccccc2c1=O
label: label 0
//
compound: Cc1ccc(CN2CCC3(Cc4ccccc4CNC3=O)C2)cc1 (stereo not drawn)
label: label 1
